System: Ramos B-Cell Line Stimulated with IL-4 (JAK-1 and JAK-3 / Stat-6, CD23)
Experiment Notes: Assay for Ramos B-Cell Line Stimulated with IL-4 (CD23 upregulation, FACS)
Format: cell-based
Condition: Homo sapiens, Ramos, human Ramos B cells, compound 1 hour, IL-4 50 units/mL for 20-24 hours, anti-CD23-PE FACS; read-out: Example 2 (IC50)
Reported Property: log10 IC50 (log10 of the value in nM)

INSERT INTO measurements (molecule, reported_property, measured_value) VALUES
  ('Cc1nc(COc2ccc(Nc3nc(Nc4ccc(C#N)cc4)ncc3F)cc2)no1', 'log10 IC50', 2.99),
  ('NC(=O)COc1cccc(Nc2nc(Nc3ccc(C(N)=O)cc3)ncc2F)c1', 'log10 IC50', 2.26),
  ('N#CCOc1ccc(Nc2nc(Nc3cccc(C(N)=O)c3)ncc2F)cc1', 'log10 IC50', 1.81),
  ('Cc1cc(Nc2nc(Nc3cccc(C(N)=O)c3)ncc2F)cc(C)c1OC(C)C#N (stereo not shown)', 'log10 IC50', 2.41),
  ('N#CCOc1ccc(Nc2nc(Nc3ccc(CC#N)cc3)ncc2F)cc1Cl', 'log10 IC50', 1.92),
  ('N#CCOc1cccc(Nc2nc(Nc3ccc(CC#N)cc3)ncc2F)c1', 'log10 IC50', 1.63),
  ('Cc1cnc(Nc2cccc(C(N)=O)c2)nc1Nc1ccc2c(c1)CCC(=O)N2C', 'log10 IC50', 2.95),
  ('CN1CCN(C(=O)c2ccc(Nc3ncc(F)c(Nc4ccc(OCC(N)=O)cc4)n3)cc2)CC1', 'log10 IC50', 3.48),
  ('Cc1nc(COc2ccc(Nc3nc(Nc4cccc(C#N)c4)ncc3F)cc2)no1', 'log10 IC50', 2.78),
  ('N#CCOc1ccc(Nc2nc(Nc3ccc(C(N)=O)cc3)ncc2F)cc1', 'log10 IC50', 0.72),
  ('Cc1cnc(Nc2cccc(C#N)c2)nc1Nc1ccc2c(c1)N(C)C(=O)CS2', 'log10 IC50', 2.06),
  ('N#CCc1ccc(Nc2ncc(F)c(Nc3cccc(OCC(N)=O)c3)n2)cc1', 'log10 IC50', 2.28),
  ('CC(C)(C#N)Oc1ccc(Nc2nc(Nc3cccc(C(N)=O)c3)ncc2F)cc1', 'log10 IC50', 2.88);

* * *

Tested on: Ramos B-Cell Line Stimulated with IL-4 (JAK-1 and JAK-3 / Stat-6, CD23)
Experiment Notes: Assay for Ramos B-Cell Line Stimulated with IL-4 (CD23 upregulation, FACS)
Format: cell-based
Condition: Homo sapiens, Ramos, human Ramos B cells, compound 1 hour, IL-4 50 units/mL for 20-24 hours, anti-CD23-PE FACS; read-out: Example 2 (IC50)
pIC50: −log10 of the molar value.
Respond with rule met for pIC50 values of 6 and above, rule not met for values below.

INSERT INTO assay_data (smiles_entry, measurement_target, group_label) VALUES
  ('CNC(=O)c1cc(Nc2ncc(F)c(Nc3ccc(OCC(N)=O)cc3)n2)ccc1N1CCN(C)CC1', 'Ramos B-Cell Line Stimulated with IL-4 (JAK-1 and JAK-3 / Stat-6, CD23)', 'rule met'),
  ('C#CCOc1ccc(Nc2nc(Nc3ccc4c(c3)C(=O)NCC4)ncc2F)cc1', 'Ramos B-Cell Line Stimulated with IL-4 (JAK-1 and JAK-3 / Stat-6, CD23)', 'rule met'),
  ('Cc1cnc(Nc2ccc(C(N)=O)cc2)nc1Nc1ccc2c(c1)CCC(=O)N2C', 'Ramos B-Cell Line Stimulated with IL-4 (JAK-1 and JAK-3 / Stat-6, CD23)', 'rule met'),
  ('CCc1cc(Nc2ncc(F)c(Nc3ccc(CC#N)cc3)n2)cc(C#N)c1Cl', 'Ramos B-Cell Line Stimulated with IL-4 (JAK-1 and JAK-3 / Stat-6, CD23)', 'rule not met'),
  ('CNC(=O)c1cc(Nc2ncc(F)c(Nc3cccc(OCC#N)c3)n2)ccc1N1CCN(C)CC1', 'Ramos B-Cell Line Stimulated with IL-4 (JAK-1 and JAK-3 / Stat-6, CD23)', 'rule met');
